- System: human liver microsomes, metabolic stability half-life
- ASSAY NOTES: NCATS Human Liver Microsomal (HLM) Stability Profiling
- REPORTED CONDITIONS: higher = more stable; screened at 1 µM (by protocol)
OUTCOME MEASURE: log10 half-life (log10 of the value in min)
Heads up: the numbers are on a log10 scale; they represent half-life in min.

Worked cases, answers included:
> print(dat)
                                   compound  result.number
1  CN1CCC(Nc2ncc3ncnc(Nc4ccc(F)c(Cl)c4)c3n2)CC1           2.06
2  Nc1cccc(CNC(=O)c2ccc(Oc3ccc(OCc4cccc(F)c4)cc3)nc2)c1           1.47
3  CCOc1ccccc1NC(=O)CSc1nc2ccccc2c2nc(CCn3cncc3C)nn12           0.73
4  C[C@]12CC[C@H]3[C@@H](CC[C@@]45O[C@H]4C(O)=C(C#N)C[C@]35C)[C@H]1CC[C@H]2O           1.93
5  CC(=O)[C@@]1(O)CC[C@H]2C3CCC4=CC(=O)CC[C@]4(C)C3CC[C@@]21C (some centres undefined)           0.99

API: the following record is the query input.
Just so you know, measured log10 half-life for Cc1ccccc1NC(=O)Nc1cccs1 came out at 1.36

====

- System: human liver microsomes, metabolic stability half-life
- ASSAY NOTES: NCATS Human Liver Microsomal (HLM) Stability Profiling
- REPORTED CONDITIONS: higher = more stable; screened at 1 µM (by protocol)
Values of half-life greater than or equal to 6 min map to Fulfilled; values below map to Not fulfilled.

Use the examples below as a reference point.
> print(dat)
                                   compound                             tested.system    label.class
1     CCCn1cnc2c1c(=O)n(CCCCC(C)=O)c(=O)n2C  human liver microsomes, metabolic stability half-life      Fulfilled
2  CC(=O)O[C@]1(C(C)=O)CC[C@H]2[C@@H]3C=C(Cl)C4=CC(=O)CC[C@]4(C)[C@H]3CC[C@@]21C  human liver microsomes, metabolic stability half-life      Fulfilled
3  Cc1ccc2c(c1)c1c3n2CCNC3CCC1 (stereo not given)  human liver microsomes, metabolic stability half-life      Fulfilled
4  O=C1c2ccccc2C(=O)C1C(=O)C(c1ccccc1)c1ccccc1  human liver microsomes, metabolic stability half-life      Fulfilled
5  COc1cc2c(C(=O)N(C)c3cccc(C(F)(F)F)c3)cn(CC(C)C)c(=O)c2cc1OC  human liver microsomes, metabolic stability half-life  Not fulfilled
6  COc1ccc(CCNc2ncnc3c2c(-c2ccccc2)cn3-c2cccc(Cl)c2)cc1OC  human liver microsomes, metabolic stability half-life  Not fulfilled
7     Cc1ccc(Nc2nc3ccccc3c3nnc(C)n23)c(C)c1  human liver microsomes, metabolic stability half-life      Fulfilled
8          CC(C)CCCC(C)N (stereo not given)  human liver microsomes, metabolic stability half-life      Fulfilled
9  COc1ccc(Cn2c(SCC(=O)N3CCN(c4ccc(F)cc4)CC3)nc3ccccc32)cc1  human liver microsomes, metabolic stability half-life  Not fulfilled

Exam item: decide whether the reported half-life for O=C(Nc1cccnc1)N1CCC(Cc2cccc(Oc3ccc(C(F)(F)F)cn3)c2)CC1 is at least 6 min. Fulfilled

====

- System: human liver microsomes, metabolic stability half-life
- ASSAY NOTES: NCATS Human Liver Microsomal (HLM) Stability Profiling
- REPORTED CONDITIONS: higher = more stable; screened at 1 µM (by protocol)
Outcome label depends on half-life relative to 20 min: at/above gives Yes, below gives No.

See these solved cases before continuing.
> print(dat)
                                   compound  label.class
1                Cc1cccc(NC(=O)Nc2cccs2)c1C           No
2  CCCc1nn(C)c2c(=O)[nH]c(-c3cc(S(=O)(=O)N4CCN(C)CC4)ccc3OCC)nc12           No
3                   O=C(O)c1ccc[n+]([O-])c1          Yes

Decide: is the reported value of half-life for COc1ccccc1Cn1cc(C(=O)c2ccc(Cl)cc2)c(=O)c2cc3c(cc21)OCCO3 equal to or greater than 20 min? Yes

Can O=C(N[C@@H]1CC[C@@H](c2cccc(F)c2F)CN(CC(F)(F)F)C1=O)N1CCC(n2c(=O)[nH]c3ncccc32)CC1 be said to have half-life at or above 20 min? Yes

====

- Test system: human liver microsomes, metabolic stability half-life
- ASSAY NOTES: NCATS Human Liver Microsomal (HLM) Stability Profiling
- REPORTED CONDITIONS: higher = more stable; screened at 1 µM (by protocol)
- Protocol: Assay submitter (PI): Dr. Pranav Shah NIH Center for Advancing Translational Sciences Pharmacokinetic issues were the leading cause of drug attrition, accounting for approximately 40% of all cases before the turn of the century. […] The substrate depletion method, also called the in vitro t1/2 method was used to analyze test compounds. […] Sample quantification and analysis was performed using a previously described method (Shah et al., 2016, Siramshetty et al., 2020). […]
Below: a set of entries, each annotated with reported log10(half-life).
// units: min (pre-log); metric: half-life; scale: log10

These solved cases illustrate the format of a correct answer.
> print(dat)
                                 smiles.repr  result.number
 1    Fc1ccc2[nH]c(CN3CCN(c4ccccn4)CC3)cc2c1           1.16
 2  CCOC(=O)[C@H](CCc1ccccc1)N[C@H]1CS[C@H](c2cccs2)CN(CC(=O)O)C1=O           0.82
 3  COc1cc(/C=N\NC(=O)c2ccc3c(c2)OCO3)ccc1OCc1ccccc1           1.37
 4  Cc1c(C)n(Cc2ccccc2)c2ccc(C(=O)OCCN(C)C)cc12           1.05
 5  CC(C)(C)c1ccc(CNC(=S)NCc2ccc(NS(C)(=O)=O)c(F)c2)cc1           1.63
 6             COP(=S)(OC)SCn1nnc2ccccc2c1=O           0.91
 7  CCN(CC)Cc1cccc(/C=C/c2nc3ccc(F)cc3c(=O)n2-c2ccccc2Cl)n1           1.41
 8  C#C[C@]1(OC(C)=O)CC[C@H]2[C@@H]3CCC4=C/C(=N/O)CC[C@@H]4[C@H]3CC[C@@]21CC           0.79
 9                          COc1cc(C=O)ccc1O           1.99
10  O=C(Nc1cccc(-c2nc3cc(Cl)ccc3o2)c1)c1ccccc1           0.73

// log10(half-life) lookup, compound = CC(=O)N1CCCc2cc(S(=O)(=O)Nc3ccc(OC(F)(F)F)cc3)ccc21 , result: 1.32

// COc1ccc(CC(=O)Nc2c(C(=O)N3CCN(c4ccccc4F)CC3)oc3ccccc23)cc1OC : log10(half-life) value = 0.72

Entry under test: NC(=O)c1cnc(N[C@@H]2CCCC[C@H]2N)nc1Nc1cccc(-n2nccn2)c1 . Its log10(half-life) was 1.96

====

- System: human liver microsomes, metabolic stability half-life
- ASSAY NOTES: NCATS Human Liver Microsomal (HLM) Stability Profiling
- REPORTED CONDITIONS: higher = more stable; screened at 1 µM (by protocol)
The threshold is inclusive: half-life of exactly 40 min counts as 1; values below receive -1.

Quick check, half-life >= 40 min? COc1cc(Nc2ncc3c(n2)-c2ccc(Cl)cc2C(c2c(F)cccc2OC)=NC3)ccc1C(=O)O 1

====

- Test system: human liver microsomes, metabolic stability half-life
- ASSAY NOTES: NCATS Human Liver Microsomal (HLM) Stability Profiling
- REPORTED CONDITIONS: higher = more stable; screened at 1 µM (by protocol)
- Procedure: Assay submitter (PI): Dr. Pranav Shah NIH Center for Advancing Translational Sciences Pharmacokinetic issues were the leading cause of drug attrition, accounting for approximately 40% of all cases before the turn of the century. […] The substrate depletion method, also called the in vitro t1/2 method was used to analyze test compounds. […] Sample quantification and analysis was performed using a previously described method (Shah et al., 2016, Siramshetty et al., 2020). […]
OUTCOME MEASURE: half-life

Examples from the recorded data:
> print(dat)
                       molecule  outcome.measure     result
1    CN(C)CCN(Cc1cccs1)c1ccccn1        half-life   23.8 min
2  C1Cc2[nH]nc(-c3nn[nH]n3)c2C1        half-life  > 120 min

Notebook: O=C(O)c1ccc(CN2CC(COc3ccccc3)C3(C2)CN(c2ccccc2)C3)cc1 (configuration not stated) , half-life read as 64.8 min

# molecule Cc1nc2c3ccccc3nc(NNC(=O)CCC(=O)N3CCN(c4ccccc4)CC3)n2n1 ; its half-life = 107 min

The value of half-life measured for the molecule N[C@@H](Cc1ccc(Oc2cc(I)c(O)c(I)c2)c(I)c1)C(=O)O turned out to be > 120 min

For record COc1ccc(C2Nc3ccccc3C(=O)N2Cc2ccco2)cc1COc1ccc(NC(C)=O)cc1 (configuration not stated) the listed half-life is 2.15 min
